Each recorded value in this set is attributed to patent US8263606B2.

Below is a list of entries, each paired with its recorded melting point value.
REPORTED_ENDPOINT: melting point

INSERT INTO assay_data (compound, experimental_result) VALUES
  ('CN1C(=O)C2(COc3cc4c(cc32)CCO4)c2ccccc21 (stereo not shown)', '187 to 190 °C'),
  ('O=C(Nc1ccccc1F)c1ccccc1CN1C(=O)C2(COc3cc4c(cc32)CCO4)c2ccccc21 (stereo not shown)', '195 to 197 °C'),
  ('CC(C)CCN1C(=O)C2(COc3cc4c(cc32)OCCO4)c2c1ccc1ncsc21 (stereo not shown)', '169 to 171 °C'),
  ('COC(=O)c1cccc(CN2C(=O)C3(COc4cc5c(cc43)CCO5)c3ccccc32)c1 (stereo not shown)', '97 to 98 °C');

* * *

REPORTED_ENDPOINT: melting point

INSERT INTO assay_data (molecule, experimental_result) VALUES
  ('O=C1N(Cc2ccccn2)c2ccccc2C12COc1cc3nccnc3cc12 (stereo not shown) [Example 4.130]', '232 to 233 °C'),
  ('O=C1N(Cc2ccc(Br)cc2)c2ccccc2C12COc1cc3c(cc12)OCO3 (stereo not shown) [Example 4.1]', '148 to 150 °C'),
  ('O=C(Nc1cccc(F)c1)c1ccc(CN2C(=O)C3(COc4cc5c(cc43)CCO5)c3ccccc32)cc1 (stereo not shown) [Example 12.36]', '> 250 °C'),
  ('O=C1N(Cc2ncccc2F)c2ccccc2[C@]12COc1cc3c(cc12)OCCO3 [Example 4.108]', '125 to 126 °C');

* * *

target: CYP3A4 (Homo sapiens, UniProt P08684); assay: Cytochrome P450 (CYP450) Inhibition Assay, CYP3A4 (Vivid fluorescence, BOMCC substrate); settings: human, P450 Baculosomes (recombinant CYP3A4), probe BOMCC (Vivid substrate)
Sequence (P08684 whole entry): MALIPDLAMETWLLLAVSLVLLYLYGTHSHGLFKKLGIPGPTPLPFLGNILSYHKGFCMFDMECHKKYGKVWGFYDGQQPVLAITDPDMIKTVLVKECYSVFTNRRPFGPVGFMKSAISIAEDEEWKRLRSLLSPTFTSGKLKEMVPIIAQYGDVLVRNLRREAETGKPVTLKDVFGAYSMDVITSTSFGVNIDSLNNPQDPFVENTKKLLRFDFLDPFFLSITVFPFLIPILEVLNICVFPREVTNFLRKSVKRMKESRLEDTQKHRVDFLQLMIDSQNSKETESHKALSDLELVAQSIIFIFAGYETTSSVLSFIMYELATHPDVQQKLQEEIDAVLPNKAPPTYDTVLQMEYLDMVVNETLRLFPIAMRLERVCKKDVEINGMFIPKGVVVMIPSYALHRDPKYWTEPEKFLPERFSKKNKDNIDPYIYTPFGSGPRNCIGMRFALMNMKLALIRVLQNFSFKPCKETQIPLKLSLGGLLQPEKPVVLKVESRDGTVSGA
Below is a list of entries, each paired with its recorded inhibition at 10 µM value.
REPORTED_ENDPOINT: inhibition at 10 µM

INSERT INTO results (compound, experimental_result) VALUES
  ('O=C1N(Cc2cccc(C(F)(F)F)n2)c2ccccc2C12COc1cc3c(cc12)OCCO3 (stereo not shown)', '> 50%'),
  ('O=C(O)c1ccc(CN2C(=O)C3(COc4cc5c(cc43)CCO5)c3ccccc32)o1 (stereo not shown)', '< 50%'),
  ('O=C1N(Cc2ccccn2)c2ccccc2C12COc1cc3c(cc12)OCCCO3 (stereo not shown)', '< 50%'),
  ('Cn1c(=O)oc2cc3c(cc21)OCC31C(=O)N(C[C@H]2CCCO2)c2ccccc21 (stereo partly shown)', '< 50%');

* * *

Below is a list of entries, each paired with its recorded melting point value.
Structures can show the parent of a compound that is named as a salt.
REPORTED_ENDPOINT: melting point

INSERT INTO measurements (molecule, reported_endpoint, experimental_result) VALUES
  ('O=C1N(Cc2ccc3c(c2)OCCO3)c2ccccc2C12COc1cc3c(cc12)CCO3 (centres unmarked)', 'melting point', '173 to 175 °C'),
  ('CN1C(=O)COc2cc3c(cc21)OCC31C(=O)Nc2ccccc21 (centres unmarked)', 'melting point', '> 250 °C'),
  ('Cc1noc2cc3c(cc12)C1(CO3)C(=O)N(Cc2ccc(-c3cc(N)n[nH]3)cc2)c2ccccc21 (centres unmarked) (as salt: hydrochloride)', 'melting point', '191 to 195 °C'),
  ('O=C1N(C[C@H]2CCCO2)c2cccc(Br)c2C12COc1cc3c(cc12)CCO3 (some centres unmarked)', 'melting point', '137 to 141 °C'),
  ('Cc1cccc(NC(=O)CN2C(=O)C3(COc4cc5c(cc43)CCO5)c3ccccc32)c1C (centres unmarked)', 'melting point', '251 to 253 °C'),
  ('Cc1nc2cc3c(cc2s1)C1(CO3)C(=O)N(Cc2ncc(Cl)n2C)c2ccccc21 (centres unmarked)', 'melting point', '177 to 178 °C'),
  ('CN1C(=O)[C@@]2(COc3cc4c(cc32)OCO4)c2c(-c3ccoc3)cccc21', 'melting point', '144 to 145 °C'),
  ('COCC(=O)Nc1cccc2c1C1(COc3cc4c(cc31)OCCO4)C(=O)N2C (centres unmarked)', 'melting point', '237 to 239 °C');

* * *

Below is a list of entries, each paired with its recorded inhibition at 10 µM value.
biological target: CYP3A4 (Homo sapiens, UniProt P08684); experiment: Cytochrome P450 (CYP450) Inhibition Assay, CYP3A4 (Vivid fluorescence, BOMCC substrate); conditions: human, P450 Baculosomes (recombinant CYP3A4), probe BOMCC (Vivid substrate)
REPORTED_ENDPOINT: inhibition at 10 µM

INSERT INTO measurements (molecule, experimental_result) VALUES
  ('COc1ccc(-c2ccc3c(c2)C2(CO3)C(=O)N(Cc3ccc(Cl)s3)c3ccccc32)cn1 (centres unmarked)', '> 50%'),
  ('O=C1N(Cc2ccc(C(F)(F)F)o2)c2ccccc2C12COc1cc(Br)ccc12 (centres unmarked)', '> 50%'),
  ('Cc1cc2c(cc1C)C1(CO2)C(=O)Nc2ccccc21 (centres unmarked)', '> 50%'),
  ('C[C@@H](CN1C(=O)C2(COc3cc4c(cc32)CCO4)c2ccccc21)OCOCc1ccccc1 (some centres unmarked)', '> 50%'),
  ('Nc1ccc2c(c1)OCC21C(=O)N(C[C@H]2CCCO2)c2ccccc21 (some centres unmarked)', '> 50%'),
  ('O=C1Nc2ccccc2C12COc1cc3c(cc12)S(=O)(=O)C=C3 (centres unmarked)', '< 50%'),
  ('O=C1N(Cc2ccc(C(F)(F)F)o2)c2ccccc2[C@@]12COc1cc3c(cc12)CCO3', '> 50%'),
  ('CN1C(=O)C2(COc3cc4c(cc32)OCCO4)c2c(Oc3ccccn3)cccc21 (centres unmarked)', '> 50%'),
  ('CC(C)(C)OC(=O)NC(CCN1C(=O)C2(COc3cc4c(cc32)OCO4)c2ccccc21)C1CC1 (centres unmarked)', '> 50%'),
  ('COc1cc2c(cc1F)C1(CO2)C(=O)N(Cc2ccc(C(F)(F)F)o2)c2ccccc21 (centres unmarked)', '> 50%'),
  ('O=C(Nc1ccccc1F)c1ccc(CN2C(=O)C3(COc4cc5c(cc43)CCO5)c3ccccc32)cc1 (centres unmarked)', '< 50%'),
  ('N#Cc1ccccc1-c1ccc(CN2C(=O)C3(COc4cc5c(cc43)CCO5)c3ccccc32)cc1 (centres unmarked)', '< 50%'),
  ('O=C1Nc2c(Cl)cccc2C12COc1cc3c(cc12)CCO3 (centres unmarked)', '< 50%'),
  ('CCCCCN1C(=O)C2(COc3cc4c(cc32)OCCO4)c2ccccc21 (centres unmarked)', '> 50%'),
  ('O=C1N(Cc2ccccn2)c2ccc3ncsc3c2C12COc1cc3c(cc12)OCCO3 (centres unmarked)', '> 50%'),
  ('O=C1N(Cc2ccc(C(F)(F)F)o2)c2cccc(Cl)c2C12COc1cc3c(cc12)CCO3 (centres unmarked)', '> 50%'),
  ('O=C1N(Cc2ccc(C(F)(F)F)o2)c2ccccc2C12COc1cc3c(cc12)OCCCO3 (centres unmarked)', '> 50%'),
  ('O=C1N(CC2CCOCC2)c2ccccc2C12COc1cc3c(cc12)OCCO3 (centres unmarked)', '< 50%'),
  ('O=C1N(Cc2nnc(-c3ccc(Cl)cc3)o2)c2ccccc2C12COc1cc3c(cc12)OCO3 (centres unmarked)', '> 50%'),
  ('CN1C(=O)C2(COc3cc4c(cc32)OCCO4)c2c(NC(=O)C3CCC3)cccc21 (centres unmarked)', '< 50%');

* * *

Below is a list of entries, each paired with its recorded inhibition at 10 µM value.
target: CYP3A4 (Homo sapiens, UniProt P08684); assay: Cytochrome P450 (CYP450) Inhibition Assay, CYP3A4 (Vivid fluorescence, BOMCC substrate); settings: human, P450 Baculosomes (recombinant CYP3A4), probe BOMCC (Vivid substrate)
REPORTED_ENDPOINT: inhibition at 10 µM

INSERT INTO assay_data (compound, experimental_result) VALUES
  ('CCc1ccccc1NC(=O)c1ccccc1CN1C(=O)C2(COc3cc4c(cc32)CCO4)c2ccccc21 (stereo not drawn)', '> 50%'),
  ('O=C1N(Cc2ccccn2)c2ccc(Br)cc2C12COc1cc3c(cc12)OCCO3 (stereo not drawn)', '> 50%'),
  ('Cn1c(=O)oc2cc3c(cc21)C1(CO3)C(=O)Nc2ccccc21 (stereo not drawn)', '< 50%');

* * *

target: CYP3A4 (Homo sapiens, UniProt P08684); experiment: Cytochrome P450 (CYP450) Inhibition Assay, CYP3A4 (Vivid fluorescence, BOMCC substrate); details: human, P450 Baculosomes (recombinant CYP3A4), probe BOMCC (Vivid substrate)
Below is a list of entries, each paired with its recorded inhibition at 10 µM value.
REPORTED_ENDPOINT: inhibition at 10 µM

INSERT INTO results (compound, reported_endpoint, experimental_result) VALUES
  ('O=C(O)c1cccc(CN2C(=O)C3(COc4cc5c(cc43)OCCO5)c3ccccc32)c1 (centres unmarked)', 'inhibition at 10 µM', '< 50%'),
  ('Cc1noc(-c2ccc(CN3C(=O)C4(COc5cc6c(cc54)OCCO6)c4ccccc43)cc2)n1 (centres unmarked)', 'inhibition at 10 µM', '< 50%'),
  ('CC(C)c1ncc(CN2C(=O)C3(COc4cc5c(cc43)OCO5)c3cccc(C(F)(F)F)c32)s1 (centres unmarked)', 'inhibition at 10 µM', '> 50%'),
  ('N#Cc1ccc2c(c1)OCC21C(=O)N(Cc2ccc3c(c2)OCCO3)c2ccccc21 (centres unmarked)', 'inhibition at 10 µM', '< 50%'),
  ('COc1ccccc1NC(=O)c1ccc(CN2C(=O)C3(COc4cc5c(cc43)CCO5)c3ccccc32)cc1 (centres unmarked)', 'inhibition at 10 µM', '< 50%'),
  ('COc1ccc(-c2cccc3c2C2(COc4cc5c(cc42)CCO5)C(=O)N3C[C@H]2CCCO2)cc1 (some centres unmarked)', 'inhibition at 10 µM', '> 50%'),
  ('O=C1NCC(CN2C(=O)C3(COc4cc5c(cc43)CCO5)c3ccccc32)O1 (centres unmarked)', 'inhibition at 10 µM', '< 50%'),
  ('O=C1N(Cc2cccc(S(=O)(=O)N3CCOCC3)c2)c2ccccc2C12COc1cc3c(cc12)OCCO3 (centres unmarked)', 'inhibition at 10 µM', '> 50%');
